FYI, the data here is from PubChem BioAssay.

# MEASUREMENT_DESCRIPTION: basal HepG2 mitochondrial membrane potential changes, profiling panel, cell-based, JC-1 fluorescence, 24 h, 100 nL compound (AID 1167); note: test concentration not given here
# ASSAY_SETUP: higher = more signal
For each record, write down the corresponding z-score.

Query block: # return recorded z-score for entry C=C(COC)C(=O)CC[C@@H](OC(C)=O)c1ccc(CO)o1
Result block: -0.799

Query block: # return recorded z-score for entry CC1(C)[C@@H]2CC(C(O)C3C=CC4C(=O)N(Cc5ccccc5)C(=O)C4N3n3cnnc3)=C[C@H]1C2 (some centres undefined)
Result block: -0.237

Query block: # return recorded z-score for entry CC1(C)C2C=C(C(O)C3C=CC4C(=O)NC(=O)C4N3Nc3ccc(Cl)cc3Cl)C[C@@H]1C2 (some centres undefined)
Result block: -4.27

Query block: # return recorded z-score for entry COc1ccc([C@H]2OC[C@@H]3C[C@@H](Cc4ccccc4)C(=O)N32)cc1
Result block: -0.478

Query block: # return recorded z-score for entry COCCOC(=O)N1C(=O)[C@@]2(c3cc(C#CCC(C(=O)OC)C(=O)OC)ccc31)[C@H](c1ccccc1OCCO)N1[C@H](c3ccccc3)[C@H](c3ccccc3)OC(=O)[C@H]1[C@@H]2C(=O)NC[C@H](O)c1ccccc1
Result block: -0.187

Query block: # return recorded z-score for entry CCCc1cc2c(n1Cc1cc(F)cc(F)c1)C(C)C1CN(C(=O)c3ccccc3)C(C)(C(=O)OC)C21 (centres undefined)
Result block: 2.5

Query block: # return recorded z-score for entry COCCOC(=O)N1C(=O)[C@@]2(c3ccccc31)[C@H](C(=O)N1CCc3cc(OC)c(OC)cc3C1)[C@H]1C(=O)O[C@H](c3ccccc3)[C@H](c3ccccc3)N1[C@@H]2c1ccc(OCCO)cc1
Result block: 0.384

Query block: # return recorded z-score for entry C=CCC(OC(C)=O)[C@@H]1[C@@H](N(Cc2ccc(-c3ccccc3)cc2)C(=O)c2ccc(-c3ccccc3)cc2)c2cc(OCCCO)ccc2N1C(=O)Cc1ccc2ccccc2c1 (some centres undefined)
Result block: 0.96

Query block: # return recorded z-score for entry COc1cc2c(cc1OC)CN(C(=O)[C@H]1[C@@H]3C(=O)O[C@@H](c4ccccc4)[C@@H](c4ccccc4)N3[C@@H](c3ccc(O)cc3)[C@]13C(=O)Nc1ccc(C#CCCO)cc13)CC2
Result block: -1.46

Query block: # return recorded z-score for entry COc1cc2c(cc1OC)CN(C(=O)[C@@H]1[C@H]3C(=O)O[C@H](c4ccccc4)[C@H](c4ccccc4)N3[C@H](c3ccccc3OCCO)[C@@]13C(=O)Nc1ccc(C#CCCO)cc13)CC2
Result block: 0.453

Query block: # return recorded z-score for entry C=C(CCCC)/C(=C/C[C@@H](OC(C)=O)c1ccc(OCCO)cc1)c1cnc2ccccc2c1
Result block: 1.65

Query block: # return recorded z-score for entry CC(C)NC(=O)[C@@]1(c2ccc([N+](=O)[O-])cc2)CC(=O)N(C2CCCCC2)[C@@H]1c1ccc(CO)cc1I
Result block: 1.29

Query block: # return recorded z-score for entry CO[C@H]1O[C@H](CO)[C@@H](OC(=O)Nc2ccc(Oc3ccccc3)cc2)[C@H](OC(=O)Nc2ccc3c(c2)OCO3)[C@H]1OC(=O)Nc1ccc2c(c1)OCO2
Result block: -0.185

Query block: # return recorded z-score for entry CCC[C@@H]1C[C@@]1(CCC)[C@@H](NS(=O)(=O)c1cccc2cccnc12)c1ccc(Cl)cc1
Result block: 3.46

###

# TEST_TARGET: Epidermal growth factor receptor (Homo sapiens)
# MEASUREMENT_DESCRIPTION: EGFR binders on small-molecule microarrays, primary screen, biochemical, small-molecule microarray, 635 nm fluorescence (AID 1104);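 note: score merges 667 nm emission intensity with spot signal to noise over triplicate slides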
# ASSAY_SETUP: EGFR binding, higher = more signal
Short version: composite z-score at least -0.5 is 1.0, less is 0.0.

Query block: Test whether the compound COc1ccc(CCNC(=O)[C@@]2(Sc3ccc(C)cc3)CC(=O)N(C3Cc4ccccc4C3)[C@@H]2c2ccc(CO)cc2I)cc1 records composite z-score of -0.5 or higher.
Result block: 0.0

Query block: Test whether the compound CC(C)C(O)C1C=CC2C(=O)NC(=O)C2N1Nc1ccc(Cl)cc1Cl (stereo not given) records composite z-score of -0.5 or higher.
Result block: 1.0

Query block: Test whether the compound CC(C)C(=C=CC[C@@H](O)c1ccc(OCCO)cc1)C[C@@H](O)COCc1ccccc1 records composite z-score of -0.5 or higher.
Result block: 0.0

Query block: Test whether the compound C=C(/C(=C/C[C@H](OC(C)=O)c1ccc(CO)o1)c1cc(C(=O)OC)ccc1OC)C(C)C records composite z-score of -0.5 or higher.
Result block: 1.0

###

# TEST_TARGET: Calmodulin-1 (Homo sapiens)
# MEASUREMENT_DESCRIPTION: CALM1 binders on microarrays, EGTA buffer, profiling panel, biochemical, small-molecule microarray, Cy5-labelled CALM1 (AID 1111);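 note: labelled calmodulin applied in Tris saline Tween buffer holding calcium plus EGTA and DTT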
# ASSAY_SETUP: Cy5-CALM1 binding fluorescence, higher = more signal
REPORTED_PROPERTY: composite z-score
The answer should be written as a number, with no unit following it.

Query block: # return recorded composite z-score for entry CN1C(=O)C2C=CC(C(O)c3ccccc3)N(N(c3ccccc3)c3ccccc3)C2C1=O (configuration not stated)
Result block: -0.315

Query block: # return recorded composite z-score for entry C=C(COC)/C(=C/C[C@H](OC(C)=O)c1ccc(CO)o1)c1cc(C(=O)OC)ccc1OC
Result block: -0.0624

Query block: # return recorded composite z-score for entry NC(=O)NCC#Cc1ccc2c(c1)[C@]1(C(=O)N2)[C@H](C(N)=O)[C@H]2C(=O)O[C@H](c3ccccc3)[C@H](c3ccccc3)N2[C@@H]1c1ccc(O)cc1
Result block: 0.721

Query block: # return recorded composite z-score for entry O=C1C2C=CC(C(O)c3cc(C(F)(F)F)cc(C(F)(F)F)c3)N(n3cnnc3)C2C(=O)N1Cc1ccccc1 (configuration not stated)
Result block: 0.538

Query block: # return recorded composite z-score for entry COCCCNC(=O)[C@@H]1c2ccccc2C(=O)N(Cc2ccccc2Cl)[C@H]1c1ccc(CO)cc1
Result block: -0.48

Query block: # return recorded composite z-score for entry C=CCOC(=O)[C@H]1[C@@H]2C(=O)O[C@@H](c3ccccc3)[C@@H](c3ccccc3)N2[C@@H](c2ccc(OCCOC(=O)[C@H]3C[C@H]4C(=O)N[C@@H](CCCCN(C)C)C(=O)N4[C@H]3c3ccc(O)cc3)cc2)[C@]12C(=O)Nc1ccc(I)cc12
Result block: 0.536

Query block: # return recorded composite z-score for entry COCCOC(=O)N1C(=O)[C@@]2(c3cc(C#CC4(O)CCCCCC4)ccc31)[C@H](c1ccccc1OCCO)N1[C@H](c3ccccc3)[C@H](c3ccccc3)OC(=O)[C@H]1[C@@H]2C(=O)N1CCN(c2ncccn2)CC1
Result block: 0.156

###

For each record, write down the corresponding z-score.
# MEASUREMENT_DESCRIPTION: RPMI8226 myeloma cell viability, profiling panel, resazurin fluorescence, basal, 24 h, PK04 Diversity Set (AID 1180);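 note: RPMI8826 multiple myeloma cell line at 5000 cells per well; test concentration not given here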
# ASSAY_SETUP: higher = more signal
The answer should be written as a number, with no unit following it.

Query block: # return recorded z-score for entry CCOC(=O)C[C@H]1[C@H](OC(=O)c2ccc(C(=O)c3ccccc3)cc2)[C@@H](NC(=O)c2ccc3ccccc3n2)c2cc(OCCCO)ccc2N1C(=O)c1ccccc1
Result block: -0.999

Query block: # return recorded z-score for entry CN(C)CCCCCCNC(=O)[C@@H]1C[C@@H]2C(=O)N[C@@H](Cc3ccccc3)C(=O)N2[C@@H]1c1ccc(O)cc1
Result block: -0.974

Query block: # return recorded z-score for entry COc1ccc(-c2cc3c(c(-c4ccc(Oc5ccccc5)cc4)n2)[Si](C(C)C)(C(C)C)OC3)cn1
Result block: -0.698

###

# MEASUREMENT_DESCRIPTION: small-molecule microarray binders of probe aShh, primary screen, biochemical, biotinylated probe, 635/667 nm fluorescence (AID 1114);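 note: probe is biotin-labelled aShh protein from a stem cell growth factor screen; measures binding of labelled protein to compounds printed on the slide; score merges feature fluorescence at 667 nm with signal-to-noise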
# ASSAY_SETUP: higher = more signal
Our labelling divides records by composite z-score into ranges: low end: < -0.1; middle: ≥ -0.1 and < 0.1; high end: ≥ 0.1

Query block: Sort into band: CC(C)OC(=O)C=C1C[C@@H](c2ccccn2)O[C@@H](c2ccccn2)O1
Result block: high end

Query block: Sort into band: O=C1c2ccccc2[C@](Cc2ccccc2I)(C(=O)NCCN2CCOCC2)[C@H](c2ccc(CO)cc2)N1C1CCCCC1
Result block: high end

Query block: Sort into band: NC(=O)NCC#Cc1ccc2c(c1)[C@]1(C(=O)N2)[C@H](c2ccc(O)cc2)N2[C@H](c3ccccc3)[C@H](c3ccccc3)OC(=O)[C@H]2[C@@H]1C(=O)O
Result block: low end

Query block: Sort into band: Cc1ccccc1C(O)C1C=CC2C(=O)N(c3ccccc3)C(=O)C2N1Nc1ccc(C(C)C)cc1 (configuration not stated)
Result block: high end

Query block: Sort into band: CCCCC(CC)C(O)C1C=CC2C(=O)N(Cc3ccccc3)C(=O)C2N1n1cnnc1 (configuration not stated)
Result block: low end

Query block: Sort into band: C=CCN1C(=O)[C@]2(O[C@H](CCn3cc([C@H](O)c4ccccc4)nn3)[C@@H]([Si](C)(C)c3ccc(OC)cc3)[C@@H]2C)c2cc(N3CCC3=O)ccc21
Result block: middle

Query block: Sort into band: C=C[C@H](CO[Si](CC)(CC)CC)N(Cc1ccc(OC(C)=O)c(OC)c1)S(=O)(=O)c1ccc(Br)cc1
Result block: middle

Query block: Sort into band: C=CCNC(=O)[C@@H]1[C@H]2C(=O)O[C@H](c3ccccc3)[C@H](c3ccccc3)N2[C@H](c2ccc(OCCO)cc2)[C@@]12C(=O)Nc1ccc(C#CCC(C(=O)OC)C(=O)OC)cc12
Result block: high end

Query block: Sort into band: COC(=O)C(CC#Cc1ccc2c(c1)[C@]1(C(=O)N2)[C@H](C(=O)Nc2nc3ccccc3s2)[C@H]2C(=O)O[C@H](c3ccccc3)[C@H](c3ccccc3)N2[C@@H]1c1ccccc1OCCO)C(=O)OC
Result block: high end

Query block: Sort into band: C=C(CCCC)/C(=C/C[C@@H](OC(=O)c1ccncc1)c1ccc(OCCO)cc1)c1cc(C(=O)OC)ccc1OC
Result block: low end

Query block: Sort into band: C=CC[C@@]1(C(=O)NCCN2CCOCC2)N=C(c2ccc(OCCCO)cc2)O[C@@H]1c1ccccc1N=[N+]=[N-]
Result block: low end

Query block: Sort into band: C=C(CCCC)/C(=C/C[C@@H](OC(C)=O)c1ccc(OCCO)cc1)c1cnc2ccccc2c1
Result block: low end

Query block: Sort into band: CC(C)N1C(=O)[C@@]2(Cc3ccccc31)c1ccccc1C(=O)N(Cc1ccccc1Cl)[C@H]2c1ccc(CO)cc1
Result block: low end

Query block: Sort into band: NC(=O)[C@@H]1[C@H]2C(=O)O[C@H](c3ccccc3)[C@H](c3ccccc3)N2[C@H](c2ccc(O)cc2)[C@@]12C(=O)Nc1ccccc12
Result block: middle

Query block: Sort into band: CCOC(=O)C[C@H]1[C@H](OC(=O)c2ccc(C(=O)c3ccccc3)cc2)[C@@H](NC(=O)CC(C)C)c2cc(OCCCO)ccc2N1C(=O)c1ccc2ccccc2n1
Result block: middle

Query block: Sort into band: O=C(N1CCCCC1)[C@]1(Cc2ccccc2)N=C(c2ccc(OCCCO)cc2)O[C@@H]1c1ccccc1
Result block: high end

Query block: Sort into band: N#Cc1ccc(NN2C(C(O)C(c3ccccc3)c3ccccc3)C=CC3C(=O)N(c4ccccc4)C(=O)C32)cc1 (configuration not stated)
Result block: high end

Query block: Sort into band: CC(=O)n1cc(C(O)C2C=CC3C(=O)N(c4ccccc4)C(=O)C3N2Nc2ccc([N+](=O)[O-])cc2)c2ccccc21 (configuration not stated)
Result block: middle

Query block: Sort into band: CN1C(=O)C2C=CC(C(O)C#Cc3ccccc3)N(N3CCCCC3)C2C1=O (configuration not stated)
Result block: high end

Query block: Sort into band: NC(=O)NCC#Cc1ccc2c(c1)[C@]1(C(=O)N2)[C@H](C(N)=O)[C@H]2C(=O)O[C@H](c3ccccc3)[C@H](c3ccccc3)N2[C@@H]1c1ccc(O)cc1
Result block: high end

Query block: Sort into band: CC(C)C(O)C1C=CC2C(=O)NC(=O)C2N1Nc1ccc(Cl)cc1Cl (configuration not stated)
Result block: low end

Query block: Sort into band: COCCOC(=O)N1C(=O)[C@@]2(c3cc(C#CCNC(N)=O)ccc31)[C@H](C(=O)Nc1nc3ccccc3s1)[C@H]1C(=O)O[C@H](c3ccccc3)[C@H](c3ccccc3)N1[C@@H]2c1ccc(OCCO)cc1
Result block: low end
